TARGET_OR_TEST_SYSTEM: Cbl (aa49-434) (Homo sapiens)
Construct: Cbl (aa49-434, in-house); made in house
Sequence (P22681 49-434): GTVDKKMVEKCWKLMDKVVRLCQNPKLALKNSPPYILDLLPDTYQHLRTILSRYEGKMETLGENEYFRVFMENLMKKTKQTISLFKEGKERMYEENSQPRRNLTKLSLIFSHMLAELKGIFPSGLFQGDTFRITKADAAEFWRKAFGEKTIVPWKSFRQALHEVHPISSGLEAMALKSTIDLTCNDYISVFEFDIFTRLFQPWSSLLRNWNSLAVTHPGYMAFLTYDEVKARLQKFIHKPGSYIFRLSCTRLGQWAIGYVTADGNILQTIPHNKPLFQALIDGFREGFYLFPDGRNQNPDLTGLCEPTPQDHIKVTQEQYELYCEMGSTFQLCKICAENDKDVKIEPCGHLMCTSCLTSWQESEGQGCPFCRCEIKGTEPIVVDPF
MEASUREMENT_NOTES: Co-expressed Cbl with BirA biochemical assay (CBL/E2-Ub binding, HTRF)
SETUP_CONDITIONS: 0.6 nM Cbl co-expressed with BirA, read-out: co-express CBL/E2-Ub-binding assay IC50
Each record here notes measured IC50.
Record the value in nM, omitting the unit from your answer.

Some solved entries appear below for comparison.
                                smiles_text  observed_result
0  Cn1cnnc1[C@]1(c2cccc(NC(=O)c3cc(CNC4(C)CC4)c4[nH]cc(Cl)c4n3)c2)C[C@H](CC#N)C1               17
1  Cc1cnc2c(C(=O)Nc3cncc([C@]4(c5nncn5C)C[C@@H](C)C4)c3)cc(CN[C@@H](C)C3CCC3)cn12              1.8

Attention now shifts to the item below.
Request: Would you kindly share the measured IC50 for `C[C@H](NCc1cc(C(=O)Nc2cccc([C@]3(c4nncn4C)C[C@@H](CC#N)C3)c2)c2nccn2c1)C1CC1` ?
Response: 8
